Cited source: PubChem BioAssay AID286

The following compounds are listed with their measured T/C values.
- System: BDF1 mice, M5076 sarcoma ip, median survival T/C
- measurement.notes: NCI In Vivo Anticancer Drug Screen. Data for tumor model Sarcoma M5076 (intraperitoneal) in B6D2F1 (BDF1) mice
- conditions: endpoint: median survival time; dose: 50.0 mg/kg/injection; schedule: Q04DX004 (ip); vehicle: saline with Tween-80; higher = longer survival
Inconclusive results and toxic doses are left out.

Some solved entries appear below for comparison.
COC(=O)Nc1ccc(Cc2ccc(NC(=O)OC)cc2)cc1 : 89 % of control
O=C1c2ccccc2C(Cl)(c2ccc(Cl)cc2)c2ccc(Cl)cc21 (stereo not drawn) : 116 % of control
CN=C(N)N/N=C(\C)c1ccc2sc3ccc(/C(C)=N/NC(N)=NC)cc3c2c1 : 113 % of control

For the compound shown here, "CC(=O)C[n+]1ccc(C)cc1Sc1ccccc1C" , give the reported T/C.
92 % of control

Consider next the compound OC(CBr)C(O)C(O)C(O)CBr (stereo not drawn) in the same way.
111 % of control

Consider next the compound "O=Cc1c(O)c2ccccc2[nH]c1=O" in the same way.
124 % of control

Consider next the compound COc1cc(C)c(C2NC(=O)c3ccccc3N2)cc1C (stereo not drawn) in the same way.
90 % of control

Consider next the compound "Cc1ccc2c(c1)n([O-])c1cc(Cl)ccc1[n+]2=O" in the same way.
112 % of control
